Test system: Escherichia coli TOP10
assay_protocol: shrunken log2 fold change of peptide-encoding DNA abundance (4.5 h post-induction vs induction); higher = less antimicrobial activity (less host growth inhibition)
condition: time post-induction: 4.5 h; library: site-saturation at positions 5, 18, 19, 20
Hi, to clarify the labels: 1.0 covers shrunken log2 fold change from 0.09 upward, 0.0 covers anything below 0.09.

Problem: Hi, just wondering whether `RRIRVRPPRLPRPRPRPDMIPRP` shows shrunken log2 fold change of 0.09 or higher.
Result: 0.0

Problem: Hi, just wondering whether `RRIRWRPPRLPRPRPRPRLKPRP` shows shrunken log2 fold change of 0.09 or higher.
Result: 1.0

Problem: Hi, just wondering whether `RRIRQRPPRLPRPRPRPDYMPRP` shows shrunken log2 fold change of 0.09 or higher.
Result: 0.0

Problem: Hi, just wondering whether `RRIRDRPPRLPRPRPRPLVQPRP` shows shrunken log2 fold change of 0.09 or higher.
Result: 1.0

Problem: Hi, just wondering whether `RRIRDRPPRLPRPRPRPADDPRP` shows shrunken log2 fold change of 0.09 or higher.
Result: 1.0

Problem: Hi, just wondering whether `RRIRHRPPRLPRPRPRPGWLPRP` shows shrunken log2 fold change of 0.09 or higher.
Result: 1.0

Problem: Hi, just wondering whether `RRIRIRPPRLPRPRPRPYPEPRP` shows shrunken log2 fold change of 0.09 or higher.
Result: 0.0

Problem: Hi, just wondering whether `RRIRTRPPRLPRPRPRPWRRPRP` shows shrunken log2 fold change of 0.09 or higher.
Result: 1.0

Problem: Hi, just wondering whether `RRIRCRPPRLPRPRPRPPDMPRP` shows shrunken log2 fold change of 0.09 or higher.
Result: 0.0

Problem: Hi, just wondering whether `RRIRKRPPRLPRPRPRPDALPRP` shows shrunken log2 fold change of 0.09 or higher.
Result: 1.0

Problem: Hi, just wondering whether `RRIRWRPPRLPRPRPRPFDNPRP` shows shrunken log2 fold change of 0.09 or higher.
Result: 0.0

Problem: Hi, just wondering whether `RRIRGRPPRLPRPRPRPYYRPRP` shows shrunken log2 fold change of 0.09 or higher.
Result: 0.0

Problem: Hi, just wondering whether `RRIRCRPPRLPRPRPRPVAMPRP` shows shrunken log2 fold change of 0.09 or higher.
Result: 0.0

Problem: Hi, just wondering whether `RRIRQRPPRLPRPRPRPKQRPRP` shows shrunken log2 fold change of 0.09 or higher.
Result: 0.0

Problem: Hi, just wondering whether `RRIRARPPRLPRPRPRPAKWPRP` shows shrunken log2 fold change of 0.09 or higher.
Result: 1.0

Problem: Hi, just wondering whether `RRIRFRPPRLPRPRPRPQTVPRP` shows shrunken log2 fold change of 0.09 or higher.
Result: 0.0

Problem: Hi, just wondering whether `RRIRQRPPRLPRPRPRPFGTPRP` shows shrunken log2 fold change of 0.09 or higher.
Result: 0.0

Problem: Hi, just wondering whether `RRIRTRPPRLPRPRPRPGVYPRP` shows shrunken log2 fold change of 0.09 or higher.
Result: 0.0

Problem: Hi, just wondering whether `RRIRFRPPRLPRPRPRPGEMPRP` shows shrunken log2 fold change of 0.09 or higher.
Result: 1.0

Problem: Hi, just wondering whether `RRIRGRPPRLPRPRPRPAWGPRP` shows shrunken log2 fold change of 0.09 or higher.
Result: 1.0

Problem: Hi, just wondering whether `RRIRLRPPRLPRPRPRPMCQPRP` shows shrunken log2 fold change of 0.09 or higher.
Result: 0.0

Problem: Hi, just wondering whether `RRIRARPPRLPRPRPRPQNHPRP` shows shrunken log2 fold change of 0.09 or higher.
Result: 0.0

Problem: Hi, just wondering whether `RRIRFRPPRLPRPRPRPMSPPRP` shows shrunken log2 fold change of 0.09 or higher.
Result: 0.0

Problem: Hi, just wondering whether `RRIRERPPRLPRPRPRPKTAPRP` shows shrunken log2 fold change of 0.09 or higher.
Result: 0.0

Problem: Hi, just wondering whether `RRIRRRPPRLPRPRPRPVWEPRP` shows shrunken log2 fold change of 0.09 or higher.
Result: 0.0

Problem: Hi, just wondering whether `RRIRFRPPRLPRPRPRPFVTPRP` shows shrunken log2 fold change of 0.09 or higher.
Result: 0.0

Problem: Hi, just wondering whether `RRIRRRPPRLPRPRPRPTGRPRP` shows shrunken log2 fold change of 0.09 or higher.
Result: 1.0

Problem: Hi, just wondering whether `RRIRPRPPRLPRPRPRPHAGPRP` shows shrunken log2 fold change of 0.09 or higher.
Result: 1.0

Problem: Hi, just wondering whether `RRIRTRPPRLPRPRPRPIDPPRP` shows shrunken log2 fold change of 0.09 or higher.
Result: 0.0

Problem: Hi, just wondering whether `RRIRTRPPRLPRPRPRPELQPRP` shows shrunken log2 fold change of 0.09 or higher.
Result: 0.0

Problem: Hi, just wondering whether `RRIRNRPPRLPRPRPRPGMTPRP` shows shrunken log2 fold change of 0.09 or higher.
Result: 0.0

Problem: Hi, just wondering whether `RRIRWRPPRLPRPRPRPIHWPRP` shows shrunken log2 fold change of 0.09 or higher.
Result: 1.0

Problem: Hi, just wondering whether `RRIRRRPPRLPRPRPRPAIDPRP` shows shrunken log2 fold change of 0.09 or higher.
Result: 1.0

Problem: Hi, just wondering whether `RRIRNRPPRLPRPRPRPRMKPRP` shows shrunken log2 fold change of 0.09 or higher.
Result: 0.0

Problem: Hi, just wondering whether `RRIRHRPPRLPRPRPRPWPCPRP` shows shrunken log2 fold change of 0.09 or higher.
Result: 0.0

Problem: Hi, just wondering whether `RRIRLRPPRLPRPRPRPEAFPRP` shows shrunken log2 fold change of 0.09 or higher.
Result: 0.0

Problem: Hi, just wondering whether `RRIRFRPPRLPRPRPRPTWVPRP` shows shrunken log2 fold change of 0.09 or higher.
Result: 1.0

Problem: Hi, just wondering whether `RRIRGRPPRLPRPRPRPDYKPRP` shows shrunken log2 fold change of 0.09 or higher.
Result: 0.0

Problem: Hi, just wondering whether `RRIRNRPPRLPRPRPRPKGYPRP` shows shrunken log2 fold change of 0.09 or higher.
Result: 0.0

Problem: Hi, just wondering whether `RRIRYRPPRLPRPRPRPFNFPRP` shows shrunken log2 fold change of 0.09 or higher.
Result: 0.0

Problem: Hi, just wondering whether `RRIRTRPPRLPRPRPRPDRCPRP` shows shrunken log2 fold change of 0.09 or higher.
Result: 0.0

Problem: Hi, just wondering whether `RRIRWRPPRLPRPRPRPSGAPRP` shows shrunken log2 fold change of 0.09 or higher.
Result: 1.0

Problem: Hi, just wondering whether `RRIRRRPPRLPRPRPRPYEMPRP` shows shrunken log2 fold change of 0.09 or higher.
Result: 0.0

Problem: Hi, just wondering whether `RRIRKRPPRLPRPRPRPQEKPRP` shows shrunken log2 fold change of 0.09 or higher.
Result: 0.0

Problem: Hi, just wondering whether `RRIRIRPPRLPRPRPRPQSEPRP` shows shrunken log2 fold change of 0.09 or higher.
Result: 0.0

Problem: Hi, just wondering whether `RRIRLRPPRLPRPRPRPSGAPRP` shows shrunken log2 fold change of 0.09 or higher.
Result: 0.0

Problem: Hi, just wondering whether `RRIRRRPPRLPRPRPRPFTMPRP` shows shrunken log2 fold change of 0.09 or higher.
Result: 0.0

Problem: Hi, just wondering whether `RRIRIRPPRLPRPRPRPEHCPRP` shows shrunken log2 fold change of 0.09 or higher.
Result: 0.0

Problem: Hi, just wondering whether `RRIRMRPPRLPRPRPRPWWYPRP` shows shrunken log2 fold change of 0.09 or higher.
Result: 0.0

Problem: Hi, just wondering whether `RRIRPRPPRLPRPRPRPFKRPRP` shows shrunken log2 fold change of 0.09 or higher.
Result: 0.0

Problem: Hi, just wondering whether `RRIRFRPPRLPRPRPRPIIEPRP` shows shrunken log2 fold change of 0.09 or higher.
Result: 0.0

Problem: Hi, just wondering whether `RRIRCRPPRLPRPRPRPQMVPRP` shows shrunken log2 fold change of 0.09 or higher.
Result: 1.0

Problem: Hi, just wondering whether `RRIRLRPPRLPRPRPRPPRAPRP` shows shrunken log2 fold change of 0.09 or higher.
Result: 1.0

Problem: Hi, just wondering whether `RRIRVRPPRLPRPRPRPWMDPRP` shows shrunken log2 fold change of 0.09 or higher.
Result: 0.0

Problem: Hi, just wondering whether `RRIRWRPPRLPRPRPRPHHWPRP` shows shrunken log2 fold change of 0.09 or higher.
Result: 1.0

Problem: Hi, just wondering whether `RRIRARPPRLPRPRPRPYASPRP` shows shrunken log2 fold change of 0.09 or higher.
Result: 0.0

----------
Please provide measured shrunken log2 fold change for the entries that follow.
Tested on: Escherichia coli TOP10;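 also: peptides expressed intracellularly from a pBAD plasmid library in pooled LB shake-flask culture, induced with 0.3% L-arabinose, DNA abundance read by NGS, three biological replicates, DESeq2 with apeglm shrinkage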
assay_protocol: shrunken log2 fold change of peptide-encoding DNA abundance (4.5 h post-induction vs induction); higher = less antimicrobial activity (less host growth inhibition)
condition: time post-induction: 4.5 h; library: site-saturation at positions 5, 18, 19, 20
Answer field: number only, no words.

Problem: What does the record list as shrunken log2 fold change for `RRIRKRPPRLPRPRPRPDNWPRP` ?
Result: 0.235

Problem: What does the record list as shrunken log2 fold change for `RRIRNRPPRLPRPRPRPTLYPRP` ?
Result: -0.3

Problem: What does the record list as shrunken log2 fold change for `RRIRYRPPRLPRPRPRPDTNPRP` ?
Result: -0.0185

Problem: What does the record list as shrunken log2 fold change for `RRIRARPPRLPRPRPRPHMVPRP` ?
Result: -0.069

# credit: the supplement of paper PMC9112550
